# credit: ChEMBL document CHEMBL1201862

Tested on: SN12C
Assay summary: NCI tumour cell line growth inhibition, 48 h
The source made the active and inactive calls. Cut-off read from the data, not from the text of the source: active = GI50 up to about 1.1 µM and inactive = higher.
Measured quantity: GI50

### Prompt // Input: N/N=C(\Nc1ccccc1)SCc1ccccc1 . Output its GI50 only.
### Response > 100 µM (inactive)

### Prompt // Input: CN1CCC/C1=C1\C(=O)c2cccn2C1=O . Output its GI50 only.
### Response > 100 µM (inactive)

---

Measured GI50, listed per entry for reference.
Test system: UACC-257
Assay summary: NCI tumour cell line growth inhibition, 48 h
The source made the active and inactive calls. Rule as the data show it: active = GI50 up to about 1.1 µM and inactive = higher.

Answered cases to consult:
C=C1CC2(OC1=O)c1ccccc1C=Cc1ccccc12; 5.14 µM (inactive)
C(#Cc1ccccc1)SC1=C(c2ccccc2)S/C(=C(\SC#Cc2ccccc2)c2ccccc2)S1; > 100 µM (inactive)
O=C(/N=N/c1ccc([N+](=O)[O-])cc1)NNc1ccc([N+](=O)[O-])cc1; 24.3 µM (inactive)

### Prompt // Input: CO[P@@]1(=O)O[C@@H](c2ccccc2)[C@H](O)[C@]1(O)c1ccccc1 . Output its GI50 only.
### Response > 100 µM (inactive)

---

Test system: DU-145
Assay summary: NCI tumour cell line growth inhibition, 48 h
Active and inactive are the calls of the source. Cut-off read from the data, not from the text of the source: active = GI50 up to about 1.1 µM and inactive = higher.
Result category, one only: active, inactive

CN1CCN2CCN(C)CCN(CC1)CC2; inactive
COC(=O)C1=C(C(=O)OC)C2OC1C1C2C2(C)C(C)=C(C)C1(C)[S+]2[O-] (stereo not drawn); inactive
C[C@H]1C/C=C/[C@H]2[C@@H]3O[C@]3(C)[C@@H](C)[C@H]3[C@H](Cc4ccccc4)NC(=O)[C@]32OC(=O)O/C=C/[C@@](C)(O)C1=O; active

### Prompt Could you check what this test reported for CSc1ncnc2c1cnn2Cc1cn(COCC(O)CO)nn1 (stereo not drawn) ?
### Response inactive

### Prompt Could you check what this test reported for O=C(O)c1cc(NC2=C(Cl)C(=O)c3c(O)ccc(O)c3C2=O)ccc1O ?
### Response inactive

### Prompt Could you check what this test reported for O=C(O)C(O)C(O)C(O)C(O)c1nc2ccccc2s1 (stereo not drawn) ?
### Response inactive

### Prompt Could you check what this test reported for [O-][S+](Nc1ccccc1)c1ccc(N2CCOCC2)cc1 (stereo not drawn) ?
### Response inactive

### Prompt Could you check what this test reported for O=C1/C(=C/c2ccc(O)c(O)c2)CCC/C1=C\c1ccc(O)c(O)c1 ?
### Response inactive

### Prompt Could you check what this test reported for Oc1cc(-c2ccccc2)nc2c(S)cccc12 ?
### Response inactive

### Prompt Could you check what this test reported for CCOC(=O)/C=C(/C(=O)OCC)n1ccc(=O)n(Cc2cnnn2CCCCOC(C)=O)c1=O ?
### Response inactive

### Prompt Could you check what this test reported for N/C(=N\O)NCCN1CCCCCCC1 ?
### Response inactive

### Prompt Could you check what this test reported for BrC1=C(Br)C2(SCCS2)[C@H]2C[C@@H]1c1ccccc12 ?
### Response inactive

### Prompt Could you check what this test reported for COc1ccc2cc(C(C)C(O)c3cc(F)c(F)c(F)c3F)ccc2c1 (stereo not drawn) ?
### Response inactive

### Prompt Could you check what this test reported for CC(=O)NCCCCN(CCCNC(C)=O)C(=O)CNS(=O)(=O)c1cccc2c(N(C)C)cccc12 ?
### Response inactive

### Prompt Could you check what this test reported for CC1(C)Cc2c(c3ccccc3c3nc4c(nc23)c2c(c3ccccc34)OC(C)(C)C2)O1 ?
### Response inactive

### Prompt Could you check what this test reported for CC1=CC(c2ccccc2)n2c(nc3cc4ccccc4cc32)N1 (stereo not drawn) ?
### Response inactive

---

Test system: NCI-H23
Assay summary: NCI tumour cell line growth inhibition, 48 h
Activity calls are given as the source filed them. No stated cut-off is given here; in the data, active = GI50 up to about 1.1 µM and inactive = higher.
Measured GI50, listed per entry for reference.

Answered cases to consult:
CCOc1ccc(N/C(=C(/C(Cl)=C(/Cl)NCCO)[N+](=O)[O-])n2nnc3ccccc32)cc1; 17.5 µM (inactive)
c1cncc(-c2cc(-c3cc(-c4cccnc4)[nH]n3)n[nH]2)c1; > 100 µM (inactive)
O=C(O)C1(CC(CCCN2CCCCC2)c2ccccc2)CCCC1 (stereo unspecified); > 100 µM (inactive)
COc1ccc(/C=C/c2cnccn2)cc1OC; > 10 µM (inactive)
CSC(=N)NNC(=O)CCC(=O)Nc1ccccc1C(F)(F)F; > 100 µM (inactive)

// moving on: another record for GI50
### Prompt // Input: N/C(=N\O)NCCN1CCCCCCC1 . Output its GI50 only.
### Response > 100 µM (inactive)

---

Test system: HL-60
Assay summary: NCI tumour cell line growth inhibition, 48 h
The source made the active and inactive calls. No stated cut-off is given here; in the data, active = GI50 up to about 1.1 µM and inactive = higher.
Result category, one only: active, inactive

Illustrative cases are given below, each with its answer.
C[C@]12CC[C@H]3[C@@H](CCC4=C[C@@H](N5CCCC5)CC[C@@]43C)[C@@H]1C/C(=C\c1ccncc1)[C@@H]2O; inactive
O=[N+]([O-])c1cc(C2(N3CCCCC3)CCCCC2)sc1Br; inactive
CCC1C(c2ccccc2O)c2cc3c(cc2OC1N1CCOCC1)OCO3 (stereo not drawn); inactive

With those in mind, consider the next molecule.
### Prompt Could you check what this test reported for CCOc1ccc(NC2=NC(=O)C(CC(=O)Nc3ccccc3[N+](=O)[O-])S2)cc1 (stereo not drawn) ?
### Response inactive

---

System: SR
Assay summary: NCI tumour cell line growth inhibition, 48 h
Active and inactive are the calls of the source. Rule as the data show it: active = GI50 up to about 1.1 µM and inactive = higher.
Result category, one only: active, inactive

### Prompt Could you check what this test reported for COc1cc(C(C#N)NNC(=O)c2ccccc2O)ccc1O (stereo unspecified) ?
### Response inactive

### Prompt Could you check what this test reported for CC(C)c1ccc2c(c1)CCC1C(C)(CN)CCCC21C (stereo unspecified) ?
### Response active

### Prompt Could you check what this test reported for COC(=O)c1c2n(c3ccccc13)C[C@H]1OC(C)(C)O[C@@H]21 ?
### Response inactive

### Prompt Could you check what this test reported for Nc1c2c(nc3ccccc13)-c1ccccc1CC2 ?
### Response inactive

### Prompt Could you check what this test reported for Cc1cccc2c1NC(=O)/C2=N\Nc1ccccc1[N+](=O)[O-] ?
### Response inactive

### Prompt Could you check what this test reported for Cc1ccc(C)n2c1nc1ccc3ccccc3c12 ?
### Response inactive

---

System: UO-31
Assay summary: NCI tumour cell line growth inhibition, 48 h
Active and inactive are the calls of the source. Rule as the data show it: active = GI50 up to about 1.1 µM and inactive = higher.
Measured quantity: GI50

Answered cases to consult:
NC(=S)N1N=C(c2ccc3c(c2)CCC3)CC1c1ccccc1 (stereo not given); 29.9 µM (inactive)
Cc1cc(Cl)nc2nc(Cl)c(N)cc12; 3.92 µM (inactive)
COc1ccc2c(c1)CC1C3(CCCCC23)CC[N+]1(C)C (stereo not given); > 100 µM (inactive)

### Prompt // Input: COc1ccc(N[C@H](CSc2ccc(C)cc2)c2ccc(F)cc2)cc1 . Output its GI50 only.
### Response > 100 µM (inactive)

### Prompt // Input: Cc1cccc(NC(=O)C(=O)C(C(=O)c2ccc3ccccc3c2)C2OC(=O)c3ccccc32)c1C (stereo not given) . Output its GI50 only.
### Response 14.5 µM (inactive)

### Prompt // Input: O=P1(C(O)c2ccccc2)N(Cc2ccccc2)[C@@H]2CCCC[C@H]2N1Cc1ccccc1 (stereo not given in full) . Output its GI50 only.
### Response 33 µM (inactive)

### Prompt // Input: O=[N+]([O-])c1ccccc1S(=O)(=O)N1CCCc2cc(Cl)ccc21 . Output its GI50 only.
### Response 30.6 µM (inactive)

### Prompt // Input: COC(=O)C1CCc2c1c(=O)n1c([nH]c3ccccc31)c2C#N (stereo not given) . Output its GI50 only.
### Response > 100 µM (inactive)

### Prompt // Input: CCOC(=O)c1c2ccccc2n2c(=O)n(-c3ccccc3)nnc12 . Output its GI50 only.
### Response 74.8 µM (inactive)

### Prompt // Input: CCOC(=O)C1C(=O)CC(C)(O)C(C(=O)OCC)C1c1ccc(OC)cc1 (stereo not given) . Output its GI50 only.
### Response > 100 µM (inactive)

---

Test system: MOLT-4
Assay summary: NCI tumour cell line growth inhibition, 48 h
The source made the active and inactive calls. Cut-off read from the data, not from the text of the source: active = GI50 up to about 1.1 µM and inactive = higher.
Measured quantity: GI50

COc1cc(/C=C\c2ccccn2)cc(OC)c1OC; 61.9 µM (inactive)

### Prompt // Input: CCOC(=O)NC(=O)c1cn(C2OC(COC(=O)CCCCCCCCC(=O)OCC3OC(n4cc(C(=O)NC(=O)OCC)c(=O)[nH]c4=O)C4OC(C)(C)OC34)C3OC(C)(C)OC32)c(=O)[nH]c1=O (centres undefined) . Output its GI50 only.
### Response 35.6 µM (inactive)

### Prompt // Input: COC(OC)C1OC(CO)C(n2ccc(N)nc2=O)C1O (centres undefined) . Output its GI50 only.
### Response > 100 µM (inactive)

### Prompt // Input: Cc1cc2nc3[nH]nc(N)c3nc2cc1C . Output its GI50 only.
### Response > 100 µM (inactive)

### Prompt // Input: Cn1cc(NC(=O)c2cc(NC(=O)c3cc(NC=O)cn3C)cn2C)cc1C(=O)NCCC(=N)N [STALLIMYCIN] . Output its GI50 only.
### Response > 100 µM (inactive)

### Prompt // Input: N=C(N)C1CN(CCc2c[nH]c3ccccc23)C(=O)NC1=O (centres undefined) . Output its GI50 only.
### Response > 100 µM (inactive)

### Prompt // Input: C=C[C@@]1(C)CC(=O)[C@]2(O)[C@@]3(C)[C@@H](OC(C)=O)CCC(C)(C)[C@@H]3[C@H](OC(C)=O)[C@H](OC(C)=O)[C@@]2(C)O1 . Output its GI50 only.
### Response 51.4 µM (inactive)

### Prompt // Input: COc1ccccc1Cn1c2c(c3c(C(=O)NCCN(C)C)c(O)ccc31)C(=O)c1ccccc1C2=O . Output its GI50 only.
### Response 1.06 µM (active)

### Prompt // Input: N/N=C(\Nc1ccccc1)SCc1ccccc1 . Output its GI50 only.
### Response > 100 µM (inactive)
